- Tested on: 521955-158-R2-J5-PDC complex spheroid viability;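 note: spheroids exposed to agents for one week before reading; 100% = DMSO vehicle control viability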
- EXPERIMENTAL_DETAILS: Anticancer human tumor 521955-158-R2-J5-PDC patient-derived pancreatic carcinoma cell line growth inhibition [GQUAD]
- COND: second compound 1 µM; first compound 0.316 µM; stronger effect = lower value
Simple rule here: viability, T/C less than 20% is true (1), otherwise false (0).

Asked: In the record for Cc1[nH]c2ccccc2c1CCNCc1ccc(/C=C/C(=O)NO)cc1 + CN(C)c1ccc(Nc2c3ccc(NC(=O)CCN4CCCC4)cc3nc3cc(NC(=O)CCN4CCCC4)ccc23)cc1 , is viability, T/C less than 20%?
Given back: true (1)

Asked: In the record for CC1COCCN1c1cc(C2(O)CC3CCC(C2)O3)c2cnn(-c3ccn[nH]3)c2n1 (stereo not given) + CN(C)c1ccc(Nc2c3ccc(NC(=O)CCN4CCCC4)cc3nc3cc(NC(=O)CCN4CCCC4)ccc23)cc1 , is viability, T/C less than 20%?
Given back: true (1)

Asked: In the record for COc1cc(C2c3cc4c(cc3C(OC3OC5COC(C)OC5C(O)C3O)C3COC(=O)C23)OCO4)cc(OC)c1O (stereo not given) + Cc1cnc(CNC(=O)c2c(=O)c3ccc(N4CCCN(C)CC4)nc3n3c2sc2ccccc23)cn1 , is viability, T/C less than 20%?
Given back: true (1)

Asked: In the record for CC(=O)O[C@H]1C(=O)[C@@]2(C)[C@H]([C@H](OC(=O)c3ccccc3)[C@]3(O)C[C@H](OC(=O)[C@H](O)[C@@H](NC(=O)c4ccccc4)c4ccccc4)C(C)=C1C3(C)C)[C@]1(OC(C)=O)CO[C@@H]1C[C@@H]2O + CN(C)c1ccc(Nc2c3ccc(NC(=O)CCN4CCCC4)cc3nc3cc(NC(=O)CCN4CCCC4)ccc23)cc1 , is viability, T/C less than 20%?
Given back: false (0)

Asked: In the record for CC1COCCN1c1cc(C2(S(C)(=N)=O)CC2)nc(-c2ccnc3[nH]ccc23)n1 (stereo not given) + Cc1cnc(CNC(=O)c2c(=O)c3ccc(N4CCCN(C)CC4)nc3n3c2sc2ccccc23)cn1 , is viability, T/C less than 20%?
Given back: false (0)

Values from PubChem BioAssay AID2060495
